Recorded values, source patent US20090035320A1.

Molecular target: T1, PCI-Flag (human, UniProt P05154 26-406, limits assumed)
T1 construct: Full-length human PCI ORF with a C-terminal Flag tag, secreted by CHO cells and purified from the culture supernatant; also called Flag-tagged PCI
T1 chain: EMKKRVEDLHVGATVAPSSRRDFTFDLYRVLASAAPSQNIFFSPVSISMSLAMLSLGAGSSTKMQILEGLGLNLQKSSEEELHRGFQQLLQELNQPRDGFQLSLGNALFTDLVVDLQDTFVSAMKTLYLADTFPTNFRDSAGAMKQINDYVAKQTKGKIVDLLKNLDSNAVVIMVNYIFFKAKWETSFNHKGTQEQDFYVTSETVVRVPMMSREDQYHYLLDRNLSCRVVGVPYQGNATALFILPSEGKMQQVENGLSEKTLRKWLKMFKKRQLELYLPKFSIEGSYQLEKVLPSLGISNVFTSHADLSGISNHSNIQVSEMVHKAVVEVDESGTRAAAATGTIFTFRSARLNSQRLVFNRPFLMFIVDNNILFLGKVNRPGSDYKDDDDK
Experiment: SPR (BIACORE 2000), PCI-Flag amine-coupled to CM5 chip, antibody injected
Protocol: PCI-Flag was diluted to 25 μg/ml with 10 mM sodium acetate (pH5.0), and then amine-coupled to a sensor chip CM5 (BIACORE; BR-1000-14) using an amine coupling kit (BIACORE; BR-1000-50) according to the method described in the kit. Approximately 3,000 RU of PCI-Flag was immobilized onto the CM5 chip by this treatment. The kinetic analyses described below were performed on BIACORE 2000 using the sensor chip. […]
Observation Type: kon (M⁻¹ s⁻¹)
Give bare numbers, in M⁻¹ s⁻¹.

PC31E2 (antibody, V domains shown, also called anti-PCI neutralizing antibody) VH: QVQLQQSGAELVKPGASVKMSCKAFGYTFTTYPIEWMKQNHGKSLEWIGKFHPDNDDTNYNEKFKGKAKLTVEKSSSTVYLELSRLTSDDSAVYYCARGHDYDYGMDYWGQGTSVTVSS VL: DIVLTQSPASLAVSLGQRATISCKASQSVDYDGDSYLNWYQQKPGQPPKLLIYGASNLESGTPARFSGSGSGTDFTLDIHPVEEEDAATYYCQQSNEDPPTFGGGTKLEIT: 175000

Next up:
Qu. I would be grateful if you could share the reported kon for PC23A7 (antibody, IgG2a, V domains shown, Mouse hybridoma monoclonal, IgG2a, purified on Protein G; also called anti-PCI neutralizing antibody) VH: EVQLQQSGAELVKPGASVKLSCTASGFDIRDTFMHWVKQRPEQGLEWIGRIDLVNVNTKYDPNFQDRATITADTSSNTAYLQLTSLTSEDTAVYYCARGGYDVREFAYWGQGTLVTVSA VL: QIVLTQSPAIMSASPGEKVTITCSATSSLIYMHWFQQKPGTSPKLWIYSTSNLASGVPARFSGSGSGTSYSLTISRMEAEDAATYYCQQRSSYPFTFGSGTKLEIK .
Ans. 151000
